Tested on: Wnt5a (protein binding on small-molecule microarray)
assay_text: Wnt5a binders on small-molecule microarray, primary screen, biophysical, 635/667 nm fluorescence (AID 1142);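 further: fluorescence read at 667 nm with signal to noise per printed feature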
condition: 635 nm fluorescence, higher = more signal
Here the recorded composite z-score is given for each entry.
The response must contain the number and no unit.

Observe how each entry below is paired with its result.
# compound, numeric_result
measured = [
    ("COC(=O)[C@@]1(Cc2ccc(OC)cc2)[C@H]2c3cc(C(=O)N(C)C)n(Cc4ccccn4)c3C[C@H]2CN1C(=O)c1ccccc1", 0.164),
    ("O=C1OCCC/C=C\\[C@H]2OC34C=CCN(Cc5ccccc5)C(=O)[C@H]3N(CCCO)C(=O)[C@@H]4C12 (stereo partly drawn)", -0.597),
]

Form field composite z-score for item C=CCC(OC(C)=O)[C@@H]1[C@@H](N(Cc2ccc(-c3ccccc3)cc2)C(=O)c2cccc3ccccc23)c2cc(OCCCO)ccc2N1C(=O)c1ccc(-c2ccccc2)cc1 (stereo partly drawn) on Wnt5a (protein binding on small-molecule microarray): 0.0826

###

assay_text: cell viability in Huh7 cells, primary screen, cytotoxicity control for HCV replication inhibitor project, CellTiter-Glo luminescence, basal, 48 h (AID 1143);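 further: Huh7 hepatoma cells carrying a hepatitis C replication reporter with no stimulus; test concentration not given here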
condition: Huh7 HCV replicon, higher = more signal, called active from +8 up or from −8 down
readout_label: z-score
Answer as a number with no unit attached.

Worked cases, answers included:
# compound, z-score
measured = [
    ("NC(=O)NCC#Cc1ccc2c(c1)[C@]1(C(=O)N2)[C@H](C(N)=O)[C@H]2C(=O)O[C@H](c3ccccc3)[C@H](c3ccccc3)N2[C@@H]1c1ccc(O)cc1", -0.0803),
    ("CC(C)C[C@@H]1NC(=O)[C@H](C(C)C)NC(=O)[C@@]23C(=O)N[C@@H](Cc4ccccc4)C2[C@H](C)[C@@]2(C)O[C@H]2C3/C=C/CC/C=C/CNC1=O (stereo partly drawn)", -3.05),
]

Please find the next compound below.
Form: compound = O=C(NCCN1CCOCC1)C1N=C(c2ccc(OCCCO)cc2)N(c2ccccc2)O1 (stereo not drawn) ; z-score = 0.213

###

assay_text: E. coli acrAB mutant growth effects, primary screen, E. coli filamentation inducers, strain DRC39, OD650, 24 h (AID 1178);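 further: growth measured as culture turbidity by optical density at 650 nm; test concentration not given here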
condition: higher = more signal, called active from +8 up or from −8 down
readout_label: z-score
Write no unit; give the number alone.

# molecule, readout_label, numeric_result
records = [
    ("[N-]=[N+]=Nc1ccccc1[C@@H]1OC(c2ccc(OCCCO)cc2)=N[C@]1(Cc1ccccc1)C(=O)N1CCOCC1", "z-score", 0.266),
    ("O=C1N(Cc2ccccc2)c2ccccc2[C@@H]2OC(c3ccc(OCCCO)cc3)=N[C@]12CCS(=O)(=O)c1ccccc1", "z-score", -0.0853),
    ("CN1C=C(C(=O)OCCS(C)(=O)=O)C(C(=O)OCCS(C)(=O)=O)=CC(c2ccc(CO)cc2)=CC1C1CC1 (stereo not drawn)", "z-score", 0.815),
    ("C=C(COC)/C(=C/C[C@@H](OC(=O)c1ccncc1)c1ccc(CO)o1)c1cc(C(=O)OC)ccc1OC", "z-score", 1.19),
    ("CC(C)NC(=O)[C@@]1(C)c2ccccc2C(=O)N(Cc2cc(C(F)(F)F)cc(C(F)(F)F)c2)[C@H]1c1ccc(CO)cc1", "z-score", 0.162),
    ("COc1ccccc1CN1C(=O)c2ccccc2[C@@]2(Cc3ccccc3N(CC(C)C)C2=O)[C@@H]1c1ccc(CO)cc1", "z-score", -0.169),
]

Summary for this molecule, NCCCCCNC(=O)[C@@H]1C[C@@H]2C(=O)N[C@@H](Cc3ccccc3)C(=O)N2[C@@H]1c1ccc(O)cc1 : z-score is -0.598

CCOC(=O)C[C@H]1[C@H](OC(=O)c2cc3ccccc3oc2=O)[C@@H](NC(=O)c2ccccc2)c2cc(OCCCO)ccc2N1C(=O)c1ccc2ccccc2n1 yielded z-score of -0.741
